target or system: UniProtKB P11387
Sequence (whole entry): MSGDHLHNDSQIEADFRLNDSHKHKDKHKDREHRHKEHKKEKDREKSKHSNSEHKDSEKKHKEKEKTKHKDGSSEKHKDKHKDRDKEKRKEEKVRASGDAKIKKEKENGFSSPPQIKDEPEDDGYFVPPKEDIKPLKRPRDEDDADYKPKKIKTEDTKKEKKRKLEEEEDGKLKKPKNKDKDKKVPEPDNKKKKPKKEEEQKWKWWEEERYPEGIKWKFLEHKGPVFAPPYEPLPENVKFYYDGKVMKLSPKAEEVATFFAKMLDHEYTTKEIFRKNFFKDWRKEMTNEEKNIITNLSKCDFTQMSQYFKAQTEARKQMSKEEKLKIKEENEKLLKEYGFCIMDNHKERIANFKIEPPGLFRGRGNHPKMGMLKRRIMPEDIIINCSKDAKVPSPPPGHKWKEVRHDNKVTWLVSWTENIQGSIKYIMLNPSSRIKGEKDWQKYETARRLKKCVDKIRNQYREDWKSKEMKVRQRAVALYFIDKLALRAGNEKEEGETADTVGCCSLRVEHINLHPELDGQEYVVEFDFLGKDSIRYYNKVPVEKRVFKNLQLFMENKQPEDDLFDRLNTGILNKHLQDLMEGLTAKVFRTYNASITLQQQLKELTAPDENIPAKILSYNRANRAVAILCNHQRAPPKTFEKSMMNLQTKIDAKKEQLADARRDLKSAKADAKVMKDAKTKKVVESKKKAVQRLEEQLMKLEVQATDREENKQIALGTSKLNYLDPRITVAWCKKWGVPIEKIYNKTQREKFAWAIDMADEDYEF
experiment notes: Poison activity at Top1 (unknown origin) assessed as decrease in relaxed supercoiled DNA at 25 uM by […] based agarose gel electrophoresis relative to control
Parameters: scale not given: the % may be the effect or the level left
property measured: Activity

Worked examples, 5 molecules total:
molecule: O=S(=O)(c1cccc2ccccc12)n1cc(C2=NN(c3ccccc3)C(c3ccc(Cl)cc3)C2)c2ccccc21 (stereo not drawn)
Activity: < 40%
--
molecule: CC(C)c1ccc(C2CC(c3cn(S(=O)(=O)c4cccc5ccccc45)c4ccccc34)=NN2c2ccccc2)cc1 (stereo not drawn)
Activity: 40 to 79%
--
molecule: Cc1ccc(S(=O)(=O)n2cc(C3=NN(c4ccccc4)C(c4ccccc4)C3)c3ccccc32)cc1 (stereo not drawn)
Activity: 40 to 79%
--
molecule: O=S(=O)(c1cccc2ccccc12)n1cc(C2=NN(c3ccccc3)C(c3ccccc3)C2)c2ccccc21 (stereo not drawn)
Activity: < 40%
--
molecule: COc1cc(C2CC(c3cn(S(=O)(=O)c4ccccc4)c4ccccc34)=NN2c2ccccc2)cc(OC)c1OC (stereo not drawn)
Activity: 40 to 79%

Record Activity for all entries; do not skip any.
1. O=S(=O)(c1ccccc1)n1cc(C2=NN(c3ccccc3)C(c3cccc4ccccc34)C2)c2ccccc21 (stereo not drawn)
2. CC(C)c1ccc(C2CC(c3cn(S(=O)(=O)c4ccccc4)c4ccccc34)=NN2c2ccccc2)cc1 (stereo not drawn)

Found:
> 80%
40 to 79%

Batch: Activity for all items listed.
1. COc1ccc(C2CC(c3cn(S(=O)(=O)c4cccc5ccccc45)c4ccccc34)=NN2c2ccccc2)cc1 (stereo not drawn)
2. Cc1ccc(S(=O)(=O)n2cc(C3=NN(c4ccccc4)C(c4cccc5ccccc45)C3)c3ccccc32)cc1 (stereo not drawn)
3. COc1cc(C2CC(c3cn(S(=O)(=O)c4ccc(C)cc4)c4ccccc34)=NN2c2ccccc2)cc(OC)c1OC (stereo not drawn)
4. O=[N+]([O-])c1cccc(C2CC(c3cn(S(=O)(=O)c4ccccc4)c4ccccc34)=NN2c2ccccc2)c1 (stereo not drawn)
5. COc1ccc(C2CC(c3cn(S(=O)(=O)c4ccccc4)c4ccccc34)=NN2c2ccccc2)cc1 (stereo not drawn)
6. Cc1ccc(S(=O)(=O)n2cc(C3=NN(c4ccccc4)C(c4ccc(C(C)C)cc4)C3)c3ccccc32)cc1 (stereo not drawn)

Found:
["< 40%", "40 to 79%", "40 to 79%", "< 40%", "40 to 79%", "< 40%"]

###

target or system: DNA topoisomerase 1 (Homo sapiens)
experiment notes: Poison activity at Top1 (unknown origin) assessed as decrease in relaxed supercoiled DNA at 25 uM by […] based agarose gel electrophoresis relative to control
Set-up: scale not given: the % may be the effect or the level left
Kindly supply the reported Activity values for the records listed here.

Recorded results for 3 molecules are shown here.
molecule: Cc1ccc(C2CC(c3cn(S(=O)(=O)c4ccccc4)c4ccccc34)=NN2c2ccccc2)cc1 (stereo not given)
target or system: DNA topoisomerase 1 (Homo sapiens)
Activity: < 40%

molecule: Cc1ccc(S(=O)(=O)n2cc(C3=NN(c4ccccc4)C(c4ccccc4Br)C3)c3ccccc32)cc1 (stereo not given)
target or system: DNA topoisomerase 1 (Homo sapiens)
Activity: < 40%

molecule: COc1ccc(C2CC(c3cn(S(=O)(=O)c4ccc(C)cc4)c4ccccc34)=NN2c2ccccc2)cc1 (stereo not given)
target or system: DNA topoisomerase 1 (Homo sapiens)
Activity: < 40%

For each listed entry, give its Activity.
1. Brc1ccccc1C1CC(c2c[nH]c3ccccc23)=NN1c1ccccc1 (stereo not given)
2. O=S(=O)(c1ccccc1)n1cc(C2=NN(c3ccccc3)C(c3ccccc3)C2)c2ccccc21 (stereo not given)

Found:
1: < 40%; 2: 40 to 79%
